- methodNotes: Effects of intravenous injection on mean arterial pressure, heart rate and vertebral arterial flow in anesthetized dogs
- assaySetup: anesthetized dogs, 1 mg/kg intravenously
measuredProperty: Changes in heart rate when injected intravenously

molecule	recordedValue
CCCCCCN1CCc2ncccc2C1 [Compound 8]	+8 Δ beats/min
Clc1ccc(C=CCN2CCc3ncccc3C2)c(Cl)c1 [Compound 70]	+16 Δ beats/min
O=[N+]([O-])c1ccccc1C=CCN1CCc2ncccc2C1 [Compound 67]	+16 Δ beats/min
CCCCCCCCCCN1CCc2ncccc2C1 [Compound 11]	+8 Δ beats/min
CC(C)=CCC/C(C)=C/CN1CCc2ncccc2C1 [Compound 20]	+12 Δ beats/min
CCCCCCCN1CCc2ncccc2C1 [Compound 9]	+8 Δ beats/min
Cc1ccc(CN2CCc3ncccc3C2)cc1 [Compound 34]	+8 Δ beats/min
CCc1ccc(CN2CCc3ncccc3C2)cc1 [Compound 35]	+8 Δ beats/min
Clc1ccc(CN2CCc3ncccc3C2)cc1 [Compound 33]	+8 Δ beats/min
Clc1ccc(CN2CCc3ncccc3C2)cc1Cl [Compound 44]	+32 Δ beats/min
C(=C\c1ccccc1)/CN1CCc2ncccc2C1 [Compound 58]	+40 Δ beats/min

* * *

Changes in systemic blood pressure when injected intravenously values, listed per item
- methodNotes: Effects of intravenous injection on mean arterial pressure, heart rate and vertebral arterial flow in anesthetized dogs
- assaySetup: anesthetized dogs, 1 mg/kg intravenously
measuredProperty: Changes in systemic blood pressure when injected intravenously

chemicalString	recordedValue
CC(C)(C)c1ccc(CN2CCc3ncccc3C2)cc1	-11.7 Δ mmHg
c1ccc(CN2CCc3ncccc3C2)cc1	-12.0 Δ mmHg
CCCCCCCCCCN1CCc2ncccc2C1	-5.0 Δ mmHg
Clc1ccccc1C=CCN1CCc2ncccc2C1	-20.0 Δ mmHg
Cc1ccc(CN2CCc3ncccc3C2)cc1	-10.0 Δ mmHg
C(=C\c1ccccc1)/CN1CCc2ncccc2C1	-13.3 Δ mmHg

* * *

- methodNotes: Acute toxicity (LD50) by intraperitoneal injection
- assaySetup: mouse, in vivo, ip; male mice, intraperitoneal injection (Table 3)
LD50 values, listed per item
measuredProperty: LD50

chemicalString	measuredProperty	recordedValue
CCCCCCCN1CCc2ncccc2C1	LD50	208 mg/kg
c1ccc(CCCN2CCc3ncccc3C2)cc1	LD50	159 mg/kg
c1ccc(OCCCN2CCc3ncccc3C2)cc1	LD50	208 mg/kg
C(=C\c1ccccc1)/CN1CCc2ncccc2C1	LD50	263 mg/kg
C=CCN1CCc2ncccc2C1	LD50	208 mg/kg

* * *

- assaySetup: dog, in vivo, iv, 1 mg/kg
measuredProperty: Changes in systemic blood pressure when injected intravenously

compound	recordedValue
CCCOc1cc(CN2CCc3ncccc3C2)ccc1OC	-11.6 Δ mmHg
CCCOc1ccc(CN2CCc3ncccc3C2)cc1OCCC	-10.0 Δ mmHg
CNCCc1ccccn1 [betahistine, reference compound]	-100.0 Δ mmHg
CCCCOc1ccc(CN2CCc3ncccc3C2)cc1OCCCC	0 Δ mmHg

* * *

- methodNotes: Effects of intravenous injection on mean arterial pressure, heart rate and vertebral arterial flow in anesthetized dogs
- assaySetup: anesthetized dogs, 1 mg/kg intravenously
measuredProperty: Changes in systemic blood pressure when injected intravenously

chemicalString	recordedValue
CCCCCCN1CCc2ncccc2C1	-18.5 Δ mmHg
Clc1ccc(C=CCN2CCc3ncccc3C2)cc1Cl	-38.3 Δ mmHg
CCCCCCCN1CCc2ncccc2C1	-20.0 Δ mmHg
Clc1ccc(CN2CCc3ncccc3C2)cc1Cl	-16.7 Δ mmHg
Clc1ccc(C=CCN2CCc3ncccc3C2)c(Cl)c1	-11.7 Δ mmHg
Clc1ccc(CN2CCc3ncccc3C2)cc1	-23.5 Δ mmHg
O=[N+]([O-])c1ccccc1C=CCN1CCc2ncccc2C1	-31.7 Δ mmHg
COc1ccc(CN2CCc3ncccc3C2)cc1OC	-27.2 Δ mmHg
Cc1ccc(C)c(C=CCN2CCc3ncccc3C2)c1	-38.3 Δ mmHg
CC(C)c1ccc(CN2CCc3ncccc3C2)cc1	-13.3 Δ mmHg
CC(C)c1cccc(CN2CCc3ncccc3C2)c1	-20.0 Δ mmHg
CCc1ccc(CN2CCc3ncccc3C2)cc1	-21.7 Δ mmHg
CC(C)=CCC/C(C)=C/CN1CCc2ncccc2C1	-11.7 Δ mmHg
